- STUDY SYSTEM: human DAT (Homo sapiens)
- Sequence (Q01959 whole entry): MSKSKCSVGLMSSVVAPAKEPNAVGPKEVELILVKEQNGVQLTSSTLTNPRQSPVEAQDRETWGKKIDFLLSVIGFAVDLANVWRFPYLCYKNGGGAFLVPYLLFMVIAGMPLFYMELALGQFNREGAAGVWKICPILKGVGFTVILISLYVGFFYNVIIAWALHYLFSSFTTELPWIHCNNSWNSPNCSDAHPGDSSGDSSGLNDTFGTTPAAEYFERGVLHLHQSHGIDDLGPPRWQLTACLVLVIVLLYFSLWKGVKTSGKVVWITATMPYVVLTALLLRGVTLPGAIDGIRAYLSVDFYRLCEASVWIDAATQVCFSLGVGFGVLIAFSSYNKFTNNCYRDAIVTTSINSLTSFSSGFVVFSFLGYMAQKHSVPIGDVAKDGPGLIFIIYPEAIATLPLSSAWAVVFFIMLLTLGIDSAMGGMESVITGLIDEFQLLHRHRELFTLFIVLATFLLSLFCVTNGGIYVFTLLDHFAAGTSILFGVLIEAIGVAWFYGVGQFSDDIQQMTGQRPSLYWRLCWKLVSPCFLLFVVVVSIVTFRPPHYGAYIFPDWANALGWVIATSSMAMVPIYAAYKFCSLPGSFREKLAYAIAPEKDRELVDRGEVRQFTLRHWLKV
- ASSAY COMMENT: cell-based
pIC50: −log10 of the molar value.

COMPOUND	pIC50
COc1cccc(C(=O)C(C)N2CCCC2)c1 (centres unmarked) [Compound 2dd]	6.34
CC(C(=O)c1cccc(F)c1)N1CCCC1 (centres unmarked) [Compound 2aa]	6.81
CC(C(=O)c1cccc([N+](=O)[O-])c1)N1CCCC1 (centres unmarked) [Compound 2ee, 2-(N-Pyrrolidinyl)-3’-nitropropiophenone]	5.00
Cc1cccc(C(=O)C(C)N2CCCC2)c1 (centres unmarked) [Compound 2cc]	6.38
CC(C(=O)c1cccc(Br)c1)N1CCCC1 (centres unmarked) [Compound 2bb, 2-(N-Pyrrolidinyl)-3’-bromopropiophenone]	6.12

* * *

- STUDY SYSTEM: human α4β4-nAChR (Homo sapiens, UniProt P30926+P43681)
- Sequence (P30926 22-498, one chain of several): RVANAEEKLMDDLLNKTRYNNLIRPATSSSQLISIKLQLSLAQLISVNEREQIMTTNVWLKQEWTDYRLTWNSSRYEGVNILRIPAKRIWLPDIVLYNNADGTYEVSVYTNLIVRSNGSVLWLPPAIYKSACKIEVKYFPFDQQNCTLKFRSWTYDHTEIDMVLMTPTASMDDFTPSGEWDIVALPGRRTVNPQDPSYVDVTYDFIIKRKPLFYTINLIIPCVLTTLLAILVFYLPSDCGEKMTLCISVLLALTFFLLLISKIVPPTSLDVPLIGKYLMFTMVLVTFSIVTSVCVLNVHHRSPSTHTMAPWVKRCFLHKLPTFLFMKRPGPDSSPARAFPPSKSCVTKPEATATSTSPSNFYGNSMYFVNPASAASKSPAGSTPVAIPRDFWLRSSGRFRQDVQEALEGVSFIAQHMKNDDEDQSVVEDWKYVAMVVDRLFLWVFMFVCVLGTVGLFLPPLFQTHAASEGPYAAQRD
- ASSAY COMMENT: 86Rb+ efflux assay, SH-EP1-hα4β4 cells
- Type: cell-based

COMPOUND	IC50 / µM
CC(C(=O)c1cccc(Br)c1)N1CCCC1 (stereo not shown)	64

* * *

- STUDY SYSTEM: human muscle-type α1β1γδ- (α1*-) nAChR (Homo sapiens, UniProt P02708+P07510+P11230+Q07001)
- Sequence (P02708 21-457): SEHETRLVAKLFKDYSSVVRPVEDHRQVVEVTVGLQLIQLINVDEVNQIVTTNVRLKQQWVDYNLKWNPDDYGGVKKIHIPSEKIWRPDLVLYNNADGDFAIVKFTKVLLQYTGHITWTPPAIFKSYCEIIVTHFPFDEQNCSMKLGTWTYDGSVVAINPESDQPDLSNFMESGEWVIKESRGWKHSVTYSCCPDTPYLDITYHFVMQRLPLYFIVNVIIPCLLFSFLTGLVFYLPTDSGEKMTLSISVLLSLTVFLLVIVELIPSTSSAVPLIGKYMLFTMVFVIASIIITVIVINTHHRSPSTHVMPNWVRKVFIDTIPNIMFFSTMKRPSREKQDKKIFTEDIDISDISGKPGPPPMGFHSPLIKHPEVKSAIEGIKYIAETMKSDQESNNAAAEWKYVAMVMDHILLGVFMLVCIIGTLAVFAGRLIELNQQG
- Sequence (P11230 24-501): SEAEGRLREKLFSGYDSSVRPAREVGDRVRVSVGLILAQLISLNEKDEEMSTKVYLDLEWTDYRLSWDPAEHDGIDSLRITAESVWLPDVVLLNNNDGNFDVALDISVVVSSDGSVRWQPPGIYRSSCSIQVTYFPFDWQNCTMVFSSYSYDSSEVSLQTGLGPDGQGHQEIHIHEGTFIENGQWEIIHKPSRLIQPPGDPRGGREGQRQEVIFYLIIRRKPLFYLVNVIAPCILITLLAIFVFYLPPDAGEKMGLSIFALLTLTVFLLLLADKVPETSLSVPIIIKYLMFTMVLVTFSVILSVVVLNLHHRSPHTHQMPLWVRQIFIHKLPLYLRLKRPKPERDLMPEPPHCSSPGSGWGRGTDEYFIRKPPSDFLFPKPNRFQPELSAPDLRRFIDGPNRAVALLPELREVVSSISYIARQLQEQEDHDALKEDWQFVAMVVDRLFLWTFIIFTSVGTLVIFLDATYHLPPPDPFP
- Sequence (P07510 23-517): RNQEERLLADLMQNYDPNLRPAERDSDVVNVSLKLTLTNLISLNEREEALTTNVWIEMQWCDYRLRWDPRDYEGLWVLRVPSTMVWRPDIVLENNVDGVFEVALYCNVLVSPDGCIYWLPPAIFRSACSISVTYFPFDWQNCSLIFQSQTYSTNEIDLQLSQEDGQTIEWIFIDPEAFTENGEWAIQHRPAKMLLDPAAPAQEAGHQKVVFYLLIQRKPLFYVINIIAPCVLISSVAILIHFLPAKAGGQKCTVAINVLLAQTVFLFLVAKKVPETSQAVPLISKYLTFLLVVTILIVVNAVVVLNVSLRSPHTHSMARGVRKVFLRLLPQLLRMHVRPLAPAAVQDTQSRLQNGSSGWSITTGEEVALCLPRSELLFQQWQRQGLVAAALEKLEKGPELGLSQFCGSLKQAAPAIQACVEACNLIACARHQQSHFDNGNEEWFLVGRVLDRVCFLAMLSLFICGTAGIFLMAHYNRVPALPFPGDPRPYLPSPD
- Sequence (Q07001 22-517): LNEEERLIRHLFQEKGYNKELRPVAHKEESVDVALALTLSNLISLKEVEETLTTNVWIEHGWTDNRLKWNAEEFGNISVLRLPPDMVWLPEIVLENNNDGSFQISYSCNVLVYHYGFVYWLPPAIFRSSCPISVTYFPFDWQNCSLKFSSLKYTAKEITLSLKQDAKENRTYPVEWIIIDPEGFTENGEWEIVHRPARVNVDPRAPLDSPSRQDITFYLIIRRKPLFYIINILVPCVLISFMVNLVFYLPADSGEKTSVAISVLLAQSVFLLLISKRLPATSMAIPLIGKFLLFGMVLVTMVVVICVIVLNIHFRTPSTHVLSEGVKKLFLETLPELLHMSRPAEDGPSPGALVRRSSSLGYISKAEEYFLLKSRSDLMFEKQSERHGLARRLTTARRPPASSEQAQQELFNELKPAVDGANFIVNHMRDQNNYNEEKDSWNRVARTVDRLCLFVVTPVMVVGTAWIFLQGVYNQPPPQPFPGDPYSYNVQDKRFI
- ASSAY COMMENT: 86Rb+ efflux assay, TE671/RD cells
Reported IC50 by item:

MOLECULE	STUDY SYSTEM	IC50, µM
Cc1cccc(C(=O)C(C)N2CCCC2)c1 (stereo not drawn)	human muscle-type α1β1γδ- (α1*-) nAChR (Homo sapiens, UniProt P02708+P07510+P11230+Q07001)	53
COc1cccc(C(=O)C(C)N2CCCC2)c1 (stereo not drawn)	human muscle-type α1β1γδ- (α1*-) nAChR (Homo sapiens, UniProt P02708+P07510+P11230+Q07001)	87
CC(C(=O)c1cccc(Br)c1)N1CCCC1 (stereo not drawn)	human muscle-type α1β1γδ- (α1*-) nAChR (Homo sapiens, UniProt P02708+P07510+P11230+Q07001)	19

* * *

Item-by-item account of pIC50
- STUDY SYSTEM: human NET (Homo sapiens)
- ASSAY COMMENT: cell-based
pIC50: −log10 of the molar value.
OBSERVED PROPERTY: pIC50

MOLECULE	DATA VALUE
COc1cccc(C(=O)C(C)N2CCCC2)c1 (centres unmarked)	6.14
Cc1cccc(C(=O)C(C)N2CCCC2)c1 (centres unmarked)	6.24
CC(C(=O)c1cccc(F)c1)N1CCCC1 (centres unmarked)	6.87
CC(C(=O)c1cccc(Br)c1)N1CCCC1 (centres unmarked)	5.93
CC(C(=O)c1cccc([N+](=O)[O-])c1)N1CCCC1 (centres unmarked)	5.39

* * *

- STUDY SYSTEM: human α3β4*-nAChR (Homo sapiens, UniProt P30926+P32297)
- Sequence (P32297 32-505): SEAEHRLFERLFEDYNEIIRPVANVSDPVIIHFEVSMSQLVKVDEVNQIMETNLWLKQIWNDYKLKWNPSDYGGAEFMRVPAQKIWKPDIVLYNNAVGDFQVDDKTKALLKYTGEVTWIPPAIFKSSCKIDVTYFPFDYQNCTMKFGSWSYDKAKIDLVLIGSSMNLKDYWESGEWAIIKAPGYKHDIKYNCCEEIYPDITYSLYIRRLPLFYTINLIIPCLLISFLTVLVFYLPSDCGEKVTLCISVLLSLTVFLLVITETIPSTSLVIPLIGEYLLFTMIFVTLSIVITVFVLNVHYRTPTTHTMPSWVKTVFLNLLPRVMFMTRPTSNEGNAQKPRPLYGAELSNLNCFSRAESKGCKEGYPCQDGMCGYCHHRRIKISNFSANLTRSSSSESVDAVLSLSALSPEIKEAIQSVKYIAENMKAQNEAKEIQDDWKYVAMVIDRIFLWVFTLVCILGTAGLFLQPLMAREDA
- Sequence (P30926 22-498): as the sequence (P30926 22-498, one chain of several) above
- ASSAY COMMENT: 86Rb+ efflux assay, SH-SY5Y cells
pIC50: −log10 of the molar value.
Item-by-item account of pIC50

COMPOUND	pIC50
CC(C(=O)c1cccc([N+](=O)[O-])c1)N1CCCC1 (centres unmarked)	4.28
CC(C(=O)c1cccc(F)c1)N1CCCC1 (centres unmarked)	4.46
CC(C(=O)c1cccc(Br)c1)N1CCCC1 (centres unmarked)	4.96
COc1cccc(C(=O)C(C)N2CCCC2)c1 (centres unmarked)	4.80
Cc1cccc(C(=O)C(C)N2CCCC2)c1 (centres unmarked)	4.96

* * *

- STUDY SYSTEM: human α4β2-nAChR (Homo sapiens, UniProt P17787+P43681)
- Sequence (P43681 29-627 limits assumed): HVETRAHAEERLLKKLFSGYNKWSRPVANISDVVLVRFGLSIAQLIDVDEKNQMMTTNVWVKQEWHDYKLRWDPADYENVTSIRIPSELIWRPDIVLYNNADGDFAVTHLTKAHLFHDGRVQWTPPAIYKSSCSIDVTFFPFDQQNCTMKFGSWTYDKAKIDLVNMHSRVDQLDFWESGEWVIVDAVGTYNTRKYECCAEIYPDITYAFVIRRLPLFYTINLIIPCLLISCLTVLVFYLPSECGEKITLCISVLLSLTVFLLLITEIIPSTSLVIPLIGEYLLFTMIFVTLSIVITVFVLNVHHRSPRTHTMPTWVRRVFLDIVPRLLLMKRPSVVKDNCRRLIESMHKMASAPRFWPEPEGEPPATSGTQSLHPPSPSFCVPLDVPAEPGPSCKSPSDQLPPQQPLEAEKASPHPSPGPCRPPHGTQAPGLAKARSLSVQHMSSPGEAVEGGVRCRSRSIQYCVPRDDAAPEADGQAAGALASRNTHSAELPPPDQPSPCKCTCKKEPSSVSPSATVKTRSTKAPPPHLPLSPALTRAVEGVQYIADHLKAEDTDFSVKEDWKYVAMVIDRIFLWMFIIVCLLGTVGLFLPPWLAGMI
- Sequence (P17787 26-502): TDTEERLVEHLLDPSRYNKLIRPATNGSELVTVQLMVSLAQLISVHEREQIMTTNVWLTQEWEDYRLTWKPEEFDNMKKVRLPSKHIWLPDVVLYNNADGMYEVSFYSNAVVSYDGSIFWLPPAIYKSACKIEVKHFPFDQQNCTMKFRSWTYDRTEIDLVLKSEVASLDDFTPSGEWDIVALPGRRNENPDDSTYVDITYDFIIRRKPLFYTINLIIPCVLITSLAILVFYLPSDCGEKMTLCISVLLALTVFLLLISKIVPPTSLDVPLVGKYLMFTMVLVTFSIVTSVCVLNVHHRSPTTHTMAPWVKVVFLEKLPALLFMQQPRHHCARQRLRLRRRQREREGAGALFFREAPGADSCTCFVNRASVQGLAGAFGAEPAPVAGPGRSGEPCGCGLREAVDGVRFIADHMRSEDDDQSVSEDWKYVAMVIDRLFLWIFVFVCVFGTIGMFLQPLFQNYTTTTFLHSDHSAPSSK
- ASSAY COMMENT: 86Rb+ efflux assay, SH-EP1-hα4β2 cells
Quick reference: IC50 of the listed items.

MOLECULE	IC50, µM
CC(C(=O)c1cccc(Br)c1)N1CCCC1 (stereo not shown)	74
Cc1cccc(C(=O)C(C)N2CCCC2)c1 (stereo not shown)	56
CC(C(=O)c1cccc(F)c1)N1CCCC1 (stereo not shown)	71
COc1cccc(C(=O)C(C)N2CCCC2)c1 (stereo not shown)	57
